# credit: the supplement of paper PMC7877785

- test_method_notes: self-splicing fitness, log relative to wild type (ln ratio); higher = more splicing; Tetrahymena group I intron in knt gene, E. coli kanamycin selection, DiMSum; sequences stand for … in CUCUCU…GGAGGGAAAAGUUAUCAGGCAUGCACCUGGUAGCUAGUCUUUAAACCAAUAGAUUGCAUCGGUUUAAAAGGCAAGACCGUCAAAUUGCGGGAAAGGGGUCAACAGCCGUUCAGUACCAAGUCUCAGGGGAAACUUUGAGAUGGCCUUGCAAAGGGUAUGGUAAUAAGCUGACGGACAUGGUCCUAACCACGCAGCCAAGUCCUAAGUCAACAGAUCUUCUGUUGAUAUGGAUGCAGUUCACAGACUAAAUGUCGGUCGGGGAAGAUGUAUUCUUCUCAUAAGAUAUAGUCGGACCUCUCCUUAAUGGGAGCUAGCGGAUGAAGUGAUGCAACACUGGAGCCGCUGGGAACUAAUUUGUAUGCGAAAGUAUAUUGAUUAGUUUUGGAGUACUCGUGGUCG;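 note: selection with 25 µg/mL kanamycin versus none on LB agar overnight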
- condition_context: 37 °C
Is self-splicing fitness (ln) at least -1? Then satisfied. If not, not satisfied.

Reported self-splicing fitness (ln) at or above -1? UGGCAGCAAUAUUACGAGUU
not satisfied

Ok, now GUGGAGCAAUAUUACGAACA
satisfied

Ok, now GUGGAGCAAUAUUACGGCAC
satisfied

Ok, now AUGCAGCAAUAUUACGCGCC
satisfied

Ok, now UUAUAGCAAUAUUACGUAUG
satisfied

----------
Consider the following sequences; for each one, report its self-splicing fitness (ln).
- test_method_notes: self-splicing fitness, log relative to wild type (ln ratio); higher = more splicing; Tetrahymena group I intron in knt gene, E. coli kanamycin selection, DiMSum; sequences stand for … in CUCUCU…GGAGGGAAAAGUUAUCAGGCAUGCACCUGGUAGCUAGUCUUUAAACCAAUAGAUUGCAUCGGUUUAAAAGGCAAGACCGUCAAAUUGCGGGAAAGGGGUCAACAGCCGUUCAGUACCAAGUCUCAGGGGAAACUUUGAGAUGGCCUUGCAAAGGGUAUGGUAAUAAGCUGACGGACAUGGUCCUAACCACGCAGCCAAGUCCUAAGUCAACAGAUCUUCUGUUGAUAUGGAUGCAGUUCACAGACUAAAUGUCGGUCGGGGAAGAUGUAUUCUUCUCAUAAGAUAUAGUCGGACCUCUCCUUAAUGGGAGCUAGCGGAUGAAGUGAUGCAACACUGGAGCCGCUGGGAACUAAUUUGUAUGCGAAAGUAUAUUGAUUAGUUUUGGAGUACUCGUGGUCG
- condition_context: 30 °C
One number for each entry.

# record_sequence, measured_metric, reported_value
records = [
    ("UCCUAGCAAUAUUACGGGAG", "self-splicing fitness (ln)", -2.27),
    ("GAGGAGCAAUAUUACGCUGC", "self-splicing fitness (ln)", -4.13),
    ("GAAUAGCAAUAUUACGAUCC", "self-splicing fitness (ln)", -1.16),
    ("CAGGAGCAAUAUUACGUGCG", "self-splicing fitness (ln)", -1.56),
]

# batch: return self-splicing fitness (ln) for each of the 3 sequences below
1. UAUAAGCAAUAUUACGGGGA
2. CCGUAGCAAUAUUACGCUGA
3. CCGCAGCAAUAUUACGAAUG

-1.81
-2.87
-1.2

----------
- test_method_notes: self-splicing fitness, log relative to wild type (ln ratio); higher = more splicing; Tetrahymena group I intron in knt gene, E. coli kanamycin selection, DiMSum; sequences stand for … in CUCUCU…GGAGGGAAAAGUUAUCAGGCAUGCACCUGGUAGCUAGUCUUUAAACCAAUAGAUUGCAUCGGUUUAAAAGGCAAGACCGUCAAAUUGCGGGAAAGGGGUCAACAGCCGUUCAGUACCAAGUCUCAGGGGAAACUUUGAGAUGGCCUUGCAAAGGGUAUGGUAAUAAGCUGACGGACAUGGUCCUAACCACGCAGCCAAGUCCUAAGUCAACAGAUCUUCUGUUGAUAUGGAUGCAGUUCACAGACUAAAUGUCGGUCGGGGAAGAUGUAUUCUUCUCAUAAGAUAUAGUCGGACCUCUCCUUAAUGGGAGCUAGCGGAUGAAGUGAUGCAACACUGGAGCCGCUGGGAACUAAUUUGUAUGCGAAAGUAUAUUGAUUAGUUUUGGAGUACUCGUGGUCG
- condition_context: 37 °C
measured_metric: self-splicing fitness (ln)
Give bare numbers.

# record_sequence, self-splicing fitness (ln)
data = [
    ("UGAAAGCAAUAUUACGUGUC", -2.32),
    ("AUGCAGCAAUAUUACGCUAA", -0.31),
    ("GCUCAGCAAUAUUACGAAAA", -1.02),
]

# batch: return self-splicing fitness (ln) for each of the 2 sequences below
1. UCUAAGCAAUAUUACGGUGC
2. AGAAAGCAAUAUUACGCCUU

1: -2.85; 2: -1.69

# batch: return self-splicing fitness (ln) for each of the 4 sequences below
1. UAAUAGCAAUAUUACGAUGG
2. UGUAAGCAAUAUUACGAUGC
3. GGGUAGCAAUAUUACGAAGA
4. UAUUAGCAAUAUUACGAUCA

-1.18
-2.34
-1.62
-0.249

# batch: return self-splicing fitness (ln) for each of the 5 sequences below
1. AGCUAGCAAUAUUACGCAAU
2. CCAAAGCAAUAUUACGGGAA
3. GUUCAGCAAUAUUACGUCGA
4. CCUAAGCAAUAUUACGUUCG
5. AAUCAGCAAUAUUACGGGCC

-1.77
-3.66
-0.398
-2.02
-2.58

----------
- test_method_notes: self-splicing fitness, log relative to wild type (ln ratio); higher = more splicing; Tetrahymena group I intron in knt gene, E. coli kanamycin selection, DiMSum; sequences stand for … in CUCUCU…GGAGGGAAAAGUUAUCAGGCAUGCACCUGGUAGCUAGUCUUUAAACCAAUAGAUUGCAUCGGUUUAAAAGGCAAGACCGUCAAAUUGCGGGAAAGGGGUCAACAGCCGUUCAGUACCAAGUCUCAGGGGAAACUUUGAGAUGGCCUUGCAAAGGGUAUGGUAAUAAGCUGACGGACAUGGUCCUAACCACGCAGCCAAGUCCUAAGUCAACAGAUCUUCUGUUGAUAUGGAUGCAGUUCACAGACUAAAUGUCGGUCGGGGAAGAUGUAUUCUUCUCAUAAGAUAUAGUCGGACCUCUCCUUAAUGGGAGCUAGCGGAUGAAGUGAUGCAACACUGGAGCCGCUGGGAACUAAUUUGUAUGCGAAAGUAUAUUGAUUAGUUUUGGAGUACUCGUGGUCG
- condition_context: 30 °C
Is self-splicing fitness (ln) at least -2? Then condition met. If not, condition not met.

# record_sequence, label
rows = [
    ("UAAAAGCAAUAUUACGGACG", "condition met"),
    ("GAGUAGCAAUAUUACGUUAC", "condition not met"),
    ("UACUAGCAAUAUUACGCGGC", "condition not met"),
    ("GGAUAGCAAUAUUACGAGCA", "condition met"),
    ("UGCAAGCAAUAUUACGCGCA", "condition not met"),
    ("UAUGAGCAAUAUUACGGAUG", "condition not met"),
    ("CCAAAGCAAUAUUACGAAAA", "condition met"),
    ("UGUUAGCAAUAUUACGGUUA", "condition met"),
    ("CAUCAGCAAUAUUACGUCAG", "condition met"),
    ("CAUAAGCAAUAUUACGCUCG", "condition met"),
]

Reported self-splicing fitness (ln) at or above -2? UGGAAGCAAUAUUACGCCGG
condition met

Ok, now GUCUAGCAAUAUUACGCGAA
condition met

----------
- test_method_notes: self-splicing fitness, log relative to wild type (ln ratio); higher = more splicing; Tetrahymena group I intron in knt gene, E. coli kanamycin selection, DiMSum; sequences stand for … in CUCUCU…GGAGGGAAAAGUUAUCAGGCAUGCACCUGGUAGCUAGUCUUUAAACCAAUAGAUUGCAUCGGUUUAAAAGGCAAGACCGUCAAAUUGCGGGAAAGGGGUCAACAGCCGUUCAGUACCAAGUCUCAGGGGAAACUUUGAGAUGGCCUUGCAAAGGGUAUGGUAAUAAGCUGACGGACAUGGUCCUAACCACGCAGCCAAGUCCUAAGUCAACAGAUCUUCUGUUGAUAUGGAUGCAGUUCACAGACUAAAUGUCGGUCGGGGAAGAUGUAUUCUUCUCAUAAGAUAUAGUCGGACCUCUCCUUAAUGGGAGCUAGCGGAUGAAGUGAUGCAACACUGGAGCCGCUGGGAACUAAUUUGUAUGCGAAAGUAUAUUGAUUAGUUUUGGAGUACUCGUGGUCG
- condition_context: 30 °C
Consider the following sequences; for each one, report its self-splicing fitness (ln).
Give bare numbers.

Would you please look over these solved cases?
# record_sequence, self-splicing fitness (ln)
records = [
    ("ACAUAGCAAUAUUACGUUCU", -1.19),
    ("AACGAGCAAUAUUACGCCUU", -3.47),
    ("GGAGAGCAAUAUUACGGGCU", -2.73),
    ("UAGCAGCAAUAUUACGACUC", -0.27),
    ("AGAUAGCAAUAUUACGGUGA", -1.9),
    ("UGGAAGCAAUAUUACGGUGG", -1.42),
]

# batch: return self-splicing fitness (ln) for each of the 2 sequences below
1. UCAAAGCAAUAUUACGUGCC
2. CCGGAGCAAUAUUACGAUCA

1: -2.35; 2: -3.1

# batch: return self-splicing fitness (ln) for each of the 3 sequences below
1. GUGCAGCAAUAUUACGACGU
2. UCUGAGCAAUAUUACGGUGG
3. AAUUAGCAAUAUUACGUACG

1. -0.779
2. -1.29
3. -1.75
